Data provenance is patent US10889581B2.

- Measurement Target: human recombinant BACE2 (Homo sapiens (Human), UniProt Q9Y5Z0)
- Sequence (Q9Y5Z0 63-518): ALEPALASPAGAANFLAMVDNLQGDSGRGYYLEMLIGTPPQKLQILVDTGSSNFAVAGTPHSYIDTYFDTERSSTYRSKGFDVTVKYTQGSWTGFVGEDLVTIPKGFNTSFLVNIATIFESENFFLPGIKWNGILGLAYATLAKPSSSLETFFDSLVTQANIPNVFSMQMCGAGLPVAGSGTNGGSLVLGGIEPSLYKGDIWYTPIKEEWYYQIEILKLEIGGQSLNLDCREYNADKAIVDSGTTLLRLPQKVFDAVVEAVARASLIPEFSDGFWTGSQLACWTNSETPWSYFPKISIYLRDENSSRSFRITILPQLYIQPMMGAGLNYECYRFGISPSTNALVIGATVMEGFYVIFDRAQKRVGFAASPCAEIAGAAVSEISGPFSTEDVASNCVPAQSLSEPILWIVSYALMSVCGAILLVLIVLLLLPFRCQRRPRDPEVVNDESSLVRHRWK
- Test Method Notes: In vitro enzymatic BACE2 FRET assay
- Measurement Conditions: pH 4.5, read-out: BACE2 Enzyme IC50
Item-by-item account of IC50
Reported Endpoint: IC50 (µM)

{"columns": ["Compound", "Reported Endpoint", "Unit Label", "Reported Result"],
 "data": [
  ["C[C@]1(c2cc(C#Cc3ccc(C#N)cn3)cnc2F)N=C(N)S[C@@]2(CF)C[C@H]21", "IC50", "µM", 3.37],
  ["N#Cc1cnc(C#Cc2ccc(F)c([C@@]3(CF)N=C(N)S[C@@]4(/C=C/C(=O)N5CCOCC5)C[C@H]43)c2)nc1", "IC50", "µM", 0.047],
  ["C[C@]1(c2cc(C#Cc3ccc(C#N)cn3)ccc2F)N=C(N)S[C@]2(CO)[C@H]1C2(F)F", "IC50", "µM", 2.08],
  ["COC[C@]12CC1[C@@](C)(c1cc(C#Cc3ccc(C#N)cn3)ccc1F)N=C(N)S2 (stereo partly shown)", "IC50", "µM", 2.33]
]}

* * *

- Measurement Target: human recombinant BACE2 (Homo sapiens (Human), UniProt Q9Y5Z0)
- Test Method Notes: In vitro enzymatic BACE2 FRET assay
- Measurement Conditions: pH 4.5, read-out: BACE2 Enzyme IC50
Item-by-item account of log10 IC50
Reported Endpoint: log10 IC50 (log10 of the value in nM)

{"columns": ["Compound", "log10 IC50"],
 "data": [
  ["Cc1cc(C#N)cnc1C#Cc1ccc(F)c([C@@]2(CF)N=C(N)S[C@@]3(CCC(=O)N4CCOCC4)C[C@H]32)c1", 2.25],
  ["N#Cc1ccc(C#Cc2ccc(F)c([C@@]3(CF)N=C(N)S[C@@]4(CC(N)=O)C[C@H]43)c2)nc1", 3.58],
  ["Cc1cc(C#N)cnc1C#Cc1ccc(F)c([C@@]2(C)N=C(N)S[C@@]3(C#N)C[C@H]32)c1", 2.79],
  ["NC1=N[C@](CF)(c2cc(C#Cc3ccc(Cl)cn3)ccc2F)[C@@H]2C[C@]2(CF)S1", 2.65],
  ["COC[C@]12CC1[C@@](C)(c1cc(C#Cc3ncc(C#N)cc3C)ccc1F)N=C(N)S2 (stereo partly drawn)", 3.16],
  ["CC#CCOc1ccc(C#Cc2ccc(F)c([C@@]3(CF)N=C(N)S[C@@]4(CF)C[C@H]43)c2)nc1", 4.01],
  ["N#Cc1ccc(C#Cc2ccc(F)c([C@@]3(CF)N=C(N)S[C@@]4(CCC(=O)N5CCOCC5)C[C@H]43)c2)nc1", 2.10],
  ["CN(C)C(=O)[C@]12C[C@H]1[C@@](C)(c1cc(C#CC3CC3)ccc1F)N=C(N)S2", 0.85],
  ["Cc1cn(C[C@]23C[C@H]2[C@@](CF)(c2cc(C#Cc4ccc(C#N)cn4)ccc2F)N=C(N)S3)nn1", 3.34],
  ["N#Cc1ccc(C#Cc2ccc(F)c([C@@]3(CF)N=C(N)S[C@@]4(/C=C/C(=O)N5CCOCC5)C[C@H]43)c2)cc1", 2.45],
  ["Cc1cc(C#N)cnc1C#Cc1ccc(F)c([C@@]2(C)N=C(N)S[C@@]3(C(=O)N(C)C)C[C@H]32)c1", 2.00],
  ["N#CC[C@]12C[C@H]1[C@@](CF)(c1cc(C#Cc3ccc(C#N)cn3)ccc1F)N=C(N)S2", 3.67],
  ["N#Cc1cnc(C#Cc2ccc(F)c([C@@]3(CF)N=C(N)S[C@@]4(CF)C[C@H]43)c2)s1", 1.96],
  ["N#Cc1cnc(C#Cc2ccc(F)c([C@@]3(CF)N=C(N)S[C@@]4(/C=C/C(=O)N5CCOCC5)C[C@H]43)c2)c(F)c1", 1.57],
  ["Cc1cc(C#Cc2ccc(F)c([C@@]3(CF)N=C(N)S[C@@]4(/C=C/C(=O)N5CCOCC5)C[C@H]43)c2)sn1", 1.23],
  ["N#Cc1ccc(C#Cc2ccc(F)c([C@@]3(CF)N=C(N)S[C@@]4(CO)C[C@H]43)c2)nc1", 3.66],
  ["Cc1cc(OCc2ncco2)cnc1C#Cc1ccc(F)c([C@@]2(C)N=C(N)S[C@@]3(C(=O)N(C)C)C[C@H]32)c1", 3.34],
  ["C#Cc1ccc(F)c([C@@]2(C)N=C(N)S[C@@]3(C(=O)N(C)C)C[C@H]32)c1 [Example 123d]", 2.15],
  ["Cc1cc(C#N)cnc1C#Cc1cnc(F)c([C@@]2(C)N=C(N)S[C@@]3(C(=O)N4CCCC4)CC32)c1 (stereo partly drawn)", 2.68],
  ["Cc1cc(C#N)cnc1C#Cc1ccc(F)c([C@@]2(CF)N=C(N)S[C@@]3(/C=C/C(=O)N4CCOCC4)C[C@H]32)c1", 2.22],
  ["Cc1cc(C#N)cnc1C#Cc1ccc(F)c([C@@]2(CF)N=C(N)S[C@@]3(CF)C[C@H]32)c1", 3.36]
]}
